studyTarget: T1, TAX1_05 (short peptide of the Trans-activating transcriptional regulatory protein of HTLV-1: GSGAG a (HTLV-1A, biotin at N-terminus))
T1 construct: source: synthetic peptide (JPT Peptide Technologies)
experimentNotes: SPR
conditionSummary: both partners purified
pKd: −log10 of the molar value.
Property: pKd; scope: individual binders

binder	pKd
SCRIB-3/4 (MBP fusion of the third of the four PDZ domains of SCRIB) (domain or fragment, also called MBP-PDZ analyte SCRIB-3/4; source: E. coli BL21 DE3, purified (amylose column, Superdex 75 gel filtration)) EGPYPVEEIRLPRAGGPLGLSIVGGSDHSSHPFGVQEPGVFISKVLPRGLAARSGLRVGDRILAVNGQDVRDATHQEAVSALLRPCLELSLLVRRDP	4.02
MAGI1-3/6 (MBP fusion of the third of the six PDZ domains of MAGI1) (domain or fragment, source: E. coli BL21 DE3, purified (amylose column, Superdex 75 gel filtration)) SHGYPNDTVSLASSIATQPELITVHIVKGPMGFGFTIADSPGGGGQRVKQIVDSPRCRGLKEGDLIVEVNKKNVQALTHNQVVDMLIECPKGSEVTLLVQRGGLPVPKKSPKSQPLERKDSQNSSQHSVSSHRSLHTASP	4.12
SCRIB-4/4 (MBP fusion of the fourth of the four PDZ domains of SCRIB) (domain or fragment, also called MBP-PDZ analyte SCRIB-4/4; source: E. coli BL21 DE3, purified (amylose column, Superdex 75 gel filtration)) GLRELCIQKAPGERLGISIRGGARGHAGNPRDPTDEGIFISKVSPTGAAGRDGRLRVGLRLLEVNQQSLLGLTHGEAVQLLRSVGDTLTVLVCDGFE	4.30
